measured.target: GPR39 receptors on m39-20 cell lines (Mus musculus, UniProt Q5U431, T447P)
Construct: P2A-mCherry (C); expressed in transfected cells
Sequence (Q5U431 1-456 T447P): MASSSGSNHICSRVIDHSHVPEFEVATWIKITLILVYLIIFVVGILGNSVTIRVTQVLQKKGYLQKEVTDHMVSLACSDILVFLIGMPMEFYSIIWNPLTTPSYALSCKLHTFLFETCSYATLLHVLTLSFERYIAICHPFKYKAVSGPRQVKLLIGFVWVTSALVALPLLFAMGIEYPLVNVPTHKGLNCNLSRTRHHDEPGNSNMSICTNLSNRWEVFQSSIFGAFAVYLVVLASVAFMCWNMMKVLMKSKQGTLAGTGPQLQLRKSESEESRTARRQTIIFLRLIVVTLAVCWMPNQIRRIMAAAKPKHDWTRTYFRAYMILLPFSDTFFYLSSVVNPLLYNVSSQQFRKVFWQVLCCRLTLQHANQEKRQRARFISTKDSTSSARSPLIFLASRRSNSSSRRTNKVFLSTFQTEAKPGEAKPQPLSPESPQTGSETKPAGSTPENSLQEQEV
test.name: FLIPR calcium imaging on m39-20 cell lines stably expressing murine-derived GPR39
Format: cell-based
study.conditions: m39-20 cells, Table 1, FIG. 2
readout.kind: change of activation efficacy after the addition of zinc ions

# smiles.input, test.value
measured = [
    ("C[C@H](CCC(=O)NCC(=O)O)[C@H]1CC[C@H]2[C@@H]3CC[C@@H]4C[C@H](OS(=O)(=O)O)CC[C@]4(C)[C@H]3CC[C@]12C", "increases slightly"),
    ("C[C@H](CCC(=O)NCC(=O)O)[C@H]1CC[C@H]2[C@@H]3CC[C@@H]4C[C@H](O)CC[C@]4(C)[C@H]3C[C@H](O)[C@]12C", "obviously improved"),
    ("C[C@H](CCC(=O)NCCS(=O)(=O)O)[C@H]1CC[C@H]2[C@@H]3CC[C@@H]4C[C@H](OS(=O)(=O)O)CC[C@]4(C)[C@H]3C[C@H](O)[C@]12C", "obviously improved"),
    ("C[C@H](CCC(=O)NCCS(=O)(=O)O)[C@H]1CC[C@H]2[C@@H]3[C@H](O)C[C@@H]4C[C@H](OS(=O)(=O)O)CC[C@]4(C)[C@H]3CC[C@]12C", "obviously improved"),
    ("C[C@H](CCC(=O)NCCS(=O)(=O)O)[C@H]1CC[C@H]2[C@@H]3[C@@H](O)C[C@@H]4C[C@H](OS(=O)(=O)O)CC[C@]4(C)[C@H]3CC[C@]12C", "obviously improved"),
    ("C[C@H](CCC(=O)O)[C@H]1CC[C@H]2[C@@H]3CC[C@@H]4C[C@H](OS(=O)(=O)O)CC[C@]4(C)[C@H]3C[C@H](O)[C@]12C", "obviously improved"),
    ("C[C@H](CCC(=O)O)[C@H]1CC[C@H]2[C@@H]3CC[C@@H]4C[C@H](OS(=O)(=O)O)CC[C@]4(C)[C@H]3CC[C@]12C", "increases slightly"),
    ("C[C@H](CCC(=O)NCC(=O)O)[C@H]1CC[C@H]2[C@@H]3[C@H](O)C[C@@H]4C[C@H](O)CC[C@]4(C)[C@H]3CC[C@]12C", "obviously improved"),
    ("C[C@H](CCC(=O)NCCS(=O)(=O)O)[C@H]1CC[C@H]2[C@@H]3CC[C@@H]4C[C@H](O)CC[C@]4(C)[C@H]3C[C@H](O)[C@]12C", "obviously improved"),
    ("C[C@H](CCC(=O)NCC(=O)O)[C@H]1CC[C@H]2[C@@H]3CC[C@@H]4C[C@H](OS(=O)(=O)O)CC[C@]4(C)[C@H]3C[C@H](O)[C@]12C", "obviously improved"),
    ("C[C@H](CCC(=O)NCCS(=O)(=O)[O-])[C@H]1CC[C@H]2[C@@H]3CC[C@@H]4C[C@H](OS(=O)(=O)[O-])CC[C@]4(C)[C@H]3CC[C@]12C.[Na+].[Na+]", "increases slightly"),
]

###

measured.target: GPR39 receptors on m39-20 cell lines (Mus musculus, UniProt Q5U431, T447P)
Construct: P2A-mCherry (C); expressed in transfected cells
Sequence (Q5U431 1-456 T447P): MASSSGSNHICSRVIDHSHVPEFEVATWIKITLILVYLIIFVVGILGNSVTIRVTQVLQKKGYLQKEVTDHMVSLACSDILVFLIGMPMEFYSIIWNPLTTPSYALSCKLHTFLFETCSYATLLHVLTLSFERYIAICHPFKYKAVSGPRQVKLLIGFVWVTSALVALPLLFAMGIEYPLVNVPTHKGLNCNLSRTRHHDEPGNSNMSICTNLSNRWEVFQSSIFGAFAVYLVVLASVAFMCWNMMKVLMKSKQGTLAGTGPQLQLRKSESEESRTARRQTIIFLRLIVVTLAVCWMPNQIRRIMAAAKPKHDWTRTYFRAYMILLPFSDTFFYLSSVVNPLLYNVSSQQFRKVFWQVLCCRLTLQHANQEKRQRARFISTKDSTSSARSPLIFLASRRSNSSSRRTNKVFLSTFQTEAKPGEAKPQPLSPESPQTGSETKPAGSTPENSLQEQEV
test.name: FLIPR calcium imaging on m39-20 cell lines stably expressing murine-derived GPR39
Format: cell-based
study.conditions: activation efficacy, m39-20 cells, 4 μM zinc ions
readout.kind: Bile acid + 4 μM zinc ions Efficacy (%)

# smiles.input, measured.target, test.value
records = [
    ("C[C@H](CCC(=O)NCCS(=O)(=O)O)[C@H]1CC[C@H]2[C@@H]3CC[C@@H]4C[C@H](O)CC[C@]4(C)[C@H]3CC[C@]12C", "GPR39 receptors on m39-20 cell lines (Mus musculus, UniProt Q5U431, T447P)", 103.5),
    ("C[C@H](CCC(=O)NCCS(=O)(=O)O)[C@H]1CC[C@H]2[C@@H]3CC[C@@H]4C[C@H](OS(=O)(=O)O)CC[C@]4(C)[C@H]3C[C@H](O)[C@]12C", "GPR39 receptors on m39-20 cell lines (Mus musculus, UniProt Q5U431, T447P)", 60.1),
    ("C[C@H](CCC(=O)NCC(=O)O)[C@H]1CC[C@H]2[C@@H]3[C@H](O)C[C@@H]4C[C@H](O)CC[C@]4(C)[C@H]3CC[C@]12C", "GPR39 receptors on m39-20 cell lines (Mus musculus, UniProt Q5U431, T447P)", 91.2),
    ("C[C@H](CCC(=O)O)[C@H]1CC[C@H]2[C@@H]3[C@H](O)C[C@@H]4C[C@H](O)CC[C@]4(C)[C@H]3CC[C@]12C", "GPR39 receptors on m39-20 cell lines (Mus musculus, UniProt Q5U431, T447P)", 85),
    ("C[C@H](CCC(=O)NCC(=O)O)[C@H]1CC[C@H]2[C@@H]3[C@@H](O)C[C@@H]4C[C@H](O)CC[C@]4(C)[C@H]3CC[C@]12C", "GPR39 receptors on m39-20 cell lines (Mus musculus, UniProt Q5U431, T447P)", 35.3),
    ("C[C@H](CCC(=O)O)[C@H]1CC[C@H]2[C@@H]3[C@H](O)C[C@@H]4C[C@H](O)CC[C@]4(C)[C@H]3C[C@H](O)[C@]12C", "GPR39 receptors on m39-20 cell lines (Mus musculus, UniProt Q5U431, T447P)", 99.3),
    ("C[C@H](CCC(=O)O)[C@H]1CC[C@H]2[C@@H]3[C@@H](O)C[C@@H]4C[C@H](O)CC[C@]4(C)[C@H]3CC[C@]12C", "GPR39 receptors on m39-20 cell lines (Mus musculus, UniProt Q5U431, T447P)", 58.5),
    ("C[C@H](CCC(=O)NCCS(=O)(=O)O)[C@H]1CC[C@H]2[C@@H]3[C@H](O)C[C@@H]4C[C@H](OS(=O)(=O)O)CC[C@]4(C)[C@H]3CC[C@]12C", "GPR39 receptors on m39-20 cell lines (Mus musculus, UniProt Q5U431, T447P)", 39.7),
    ("C[C@H](CCC(=O)NCC(=O)O)[C@H]1CC[C@H]2[C@@H]3CC[C@@H]4C[C@H](OS(=O)(=O)O)CC[C@]4(C)[C@H]3C[C@H](O)[C@]12C", "GPR39 receptors on m39-20 cell lines (Mus musculus, UniProt Q5U431, T447P)", 58.5),
    ("C[C@H](CCC(=O)O)[C@H]1CC[C@H]2[C@@H]3CC[C@@H]4C[C@H](O)CC[C@]4(C)[C@H]3CC[C@]12C", "GPR39 receptors on m39-20 cell lines (Mus musculus, UniProt Q5U431, T447P)", 1.3),
    ("C[C@H](CCC(=O)NCC(=O)O)[C@H]1CC[C@H]2[C@@H]3[C@H](O)C[C@@H]4C[C@H](O)CC[C@]4(C)[C@H]3C[C@H](O)[C@]12C", "GPR39 receptors on m39-20 cell lines (Mus musculus, UniProt Q5U431, T447P)", 20),
    ("C[C@H](CCC(=O)NCCS(=O)(=O)O)[C@H]1CC[C@H]2[C@@H]3[C@H](O)C[C@@H]4C[C@H](O)CC[C@]4(C)[C@H]3C[C@H](O)[C@]12C", "GPR39 receptors on m39-20 cell lines (Mus musculus, UniProt Q5U431, T447P)", 31.8),
]
